System: Salmonella typhimurium
method-summary: Antibiofilm activity in Salmonella Typhimurium ATCC 14028 assessed as inhibition of biofilm formation at 25 degC after 24 hrs
Type: functional, organism-based, Salmonella enterica subsp. enterica serovar Typhimurium
applied-conditions: Salmonella enterica, ATCC 14028, 24 h
pIC50: −log10 of the molar value.
measure: pIC50

Worked set:
INSERT INTO measurements (record_smiles, val) VALUES
  ('Nc1ncc(-c2ccc(Cl)cc2)n1C1CCCCCCCCCCC1', 3.92),
  ('CCCCCCCCCCCCCn1c(-c2ccc(Cl)cc2)cnc1N', 4.71),
  ('O=[N+]([O-])c1ccc(-c2cn3cccnc3[n+]2C2CCCCCCCCCCC2)cc1.[O-][Cl+3]([O-])([O-])[O-]', 5.01),
  ('CCCCCCCC[n+]1c(-c2ccc(SC)cc2)cn2cccnc21.[O-][Cl+3]([O-])([O-])[O-]', 4.68),
  ('CCCCCCCCn1c(-c2ccc(S(C)(=O)=O)cc2)cnc1N', 4.54),
  ('Cc1ccc(-c2cnc(N)n2C(C)C)cc1', 3.69);

I. CCCCCCCCn1c(-c2ccc(-c3ccc([N+](=O)[O-])cc3)cc2)cnc1N
II. Nc1ncc(-c2ccc([N+](=O)[O-])cc2)[nH]1
Prompt: Min pIC50? I | II Give the chosen item's label as your response.
Response: I

---

Test system: Salmonella typhimurium
method-summary: Antibiofilm activity in Salmonella Typhimurium ATCC 14028 assessed as inhibition of biofilm formation at 25 degC after 24 hrs
Format: functional, organism-based, Salmonella enterica subsp. enterica serovar Typhimurium
applied-conditions: Salmonella enterica, ATCC 14028, 24 h
measure: IC50 (µM)

INSERT INTO measurements (record_smiles, measure, quantity_unit, val) VALUES
  ('Nc1ncc(-c2ccc(Cl)cc2)[nH]1', 'IC50', 'µM', 16);

I. CCCCCCn1c(-c2ccc(-c3ccccc3)cc2)cnc1N
II. CCCCCCCC[n+]1c(-c2ccc(-c3ccc([N+](=O)[O-])cc3)cc2)cn2cccnc21.[O-][Cl+3]([O-])([O-])[O-]
III. CC(C)C[n+]1c(-c2ccc([N+](=O)[O-])cc2)cn2cccnc21.[O-][Cl+3]([O-])([O-])[O-]
Prompt: Hello, I need these entries ordered by IC50, highest reading first. Thanks! Would you mind listing the labels in the order requested?
Response: III, I, II
(III: 405 µM, I: 12.1 µM, II: 1.5 µM)

---

System: Salmonella typhimurium
method-summary: Antibiofilm activity in Salmonella Typhimurium ATCC 14028 assessed as inhibition of biofilm formation at 25 degC after 24 hrs
Type: functional, organism-based, Salmonella enterica subsp. enterica serovar Typhimurium
applied-conditions: Salmonella enterica, ATCC 14028, 24 h
pIC50: −log10 of the molar value.
measure: pIC50

Worked set:
INSERT INTO results (record_smiles, val) VALUES
  ('Nc1ncc(-c2ccc(Br)cc2)[nH]1', 4.32),
  ('CCCCCCCCCCCCCCn1c(-c2ccccc2)cnc1N', 5.06),
  ('Nc1ncc(-c2ccc(-c3ccccc3)cc2)n1C1CCC1', 4.58),
  ('Nc1ncc(-c2ccc(Cl)cc2)n1C1CCCCCCC1', 4.89),
  ('CCCCCCCCCCCCCCn1c(-c2ccc(Cl)cc2)cnc1N', 3.34);

P. Nc1ncc(-c2ccc(Cl)cc2)n1C1CCCCCC1
Q. CCCCCCCCn1c(-c2ccc([N+](=O)[O-])cc2)cnc1N
Prompt: Min pIC50? P | Q Give the chosen item's label as your response.
Response: Q
(Q: 4.45, P: 4.80)
